Protein target, amino acids: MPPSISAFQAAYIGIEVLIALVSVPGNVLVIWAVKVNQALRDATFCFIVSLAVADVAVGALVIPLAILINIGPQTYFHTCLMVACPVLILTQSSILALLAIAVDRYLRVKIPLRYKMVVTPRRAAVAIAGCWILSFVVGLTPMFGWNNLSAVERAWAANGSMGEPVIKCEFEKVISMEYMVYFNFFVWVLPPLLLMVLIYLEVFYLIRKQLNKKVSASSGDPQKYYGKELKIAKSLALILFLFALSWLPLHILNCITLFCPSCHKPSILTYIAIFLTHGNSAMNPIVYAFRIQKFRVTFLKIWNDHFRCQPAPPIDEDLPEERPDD
pKi: −log10 of the molar value.
Assay Metric: pKi

# Structure As Smiles, Assay Value
measured = [
    ("CCCCn1cc2c(nc(NC(=O)Cc3cccc4ccccc34)n3nc(-c4ccco4)nc23)n1", 6.77),
    ("Cn1cc2c(nc(NC(=O)C(c3ccccc3)c3ccccc3)n3nc(-c4ccco4)nc23)n1", 6.86),
    ("O=C(Cc1c(Cl)cccc1Cl)Nc1nc2nn(CCCc3ccccc3)cc2c2nc(-c3ccco3)nn12", 6.10),
    ("O=C(Cc1ccc2ccccc2c1)Nc1nc2nn(CCCc3ccccc3)cc2c2nc(-c3ccco3)nn12", 6.62),
    ("O=C(Cc1cccc(Cl)c1)Nc1nc2nn(CCc3ccccc3)cc2c2nc(-c3ccco3)nn12", 7.88),
    ("O=C(Cc1ccc(-c2ccccc2)cc1)Nc1nc2nn(CCCc3ccccc3)cc2c2nc(-c3ccco3)nn12", 5.93),
    ("CC(C)CCn1cc2c(nc(NC(=O)Cc3ccc(C(F)(F)F)cc3)n3nc(-c4ccco4)nc23)n1", 7.32),
    ("O=C(Cc1cccs1)Nc1nc2nn(CCc3ccccc3)cc2c2nc(-c3ccco3)nn12", 7.73),
    ("O=C(Cc1ccccc1)Nc1nc2nn(CCc3ccccc3)cc2c2nc(-c3ccco3)nn12", 6.89),
]
